- Tested on: SN12C
- Measurement Description: NCI tumour cell line growth inhibition, 48 h
Calls of active or inactive are those of the source. Cut-off read from the data, not from the text of the source: active = GI50 up to about 1.1 µM and inactive = higher.
Measured Parameter: GI50

Some compounds with known GI50 results, for comparison:
Compound: Cc1ccc(C(=O)N/N=C(\N=N\c2ccccc2[N+](=O)[O-])c2ccc(N(C)C)cc2)cc1
Measured Parameter: GI50
Observed Measurement: > 100 µM (inactive)
//
Compound: COC(=O)CCC(NC(=S)N/N=C/c1cccs1)C(=O)OC (stereo not drawn)
Measured Parameter: GI50
Observed Measurement: > 100 µM (inactive)
//
Compound: c1ccc2c(c1)CN1CCCC1CN2 (stereo not drawn)
Measured Parameter: GI50
Observed Measurement: > 100 µM (inactive)

Per the records, this compound ( `C=C(Br)CNC(=O)CCC(=O)NCC(=C)Br` ) has GI50 equal to > 100 µM (inactive)

Per the records, this compound ( FC(F)(F)c1cccc(C2SCc3nc4ccccc4n32)c1 (stereo not drawn) ) has GI50 equal to > 100 µM (inactive)

Per the records, this compound ( NC(=O)OCC(COc1ccc(Cl)cc1)OC(=O)c1ccccc1Cl (stereo not drawn) ) has GI50 equal to 16.6 µM (inactive)

Per the records, this compound ( Cc1cc(Cl)cc2c1NC(=O)C2(O)CC(=O)c1ccc(Br)cc1 (stereo not drawn) ) has GI50 equal to > 77.1 µM (inactive)

----------
- System: CCRF-CEM
- Measurement Description: NCI tumour cell line growth inhibition, 48 h
The source made the active and inactive calls. No stated cut-off is given here; in the data, active = GI50 up to about 1.1 µM and inactive = higher.
Reported GI50 values for a set of molecules

Some molecules with known GI50 results, for comparison:
Molecule: NC(=O)SCCC(N)C(=O)O (stereo unspecified)
Observed Measurement: > 100 µM (inactive)
--
Molecule: COC(=O)NC1C(C)OC(OC2C/C=C(/C)C3C=CC4C(OC5CC(OC6CC(O)C(OC7CC(O)C(OC)C(C)O7)C(C)O6)C(O)C(C)O5)C(C)CC(C)C4C3(C)C(=O)C3=C(O)C4(CC(C)C(CO)=CC4/C=C\2C)OC3=O)CC1(C)[N+](=O)[O-] (stereo unspecified)
Observed Measurement: 2.79 µM (inactive)
--
Molecule: COc1cc(C2C3=C(NC(=O)C2C#N)c2ccc4ccccc4c2OCC3)cc(OC)c1OC (stereo unspecified)
Observed Measurement: 70.8 µM (inactive)
--
Molecule: Cc1no[n+]([O-])c1/C=N/NS(=O)(=O)c1ccccc1
Observed Measurement: > 10 µM (inactive)
--
Molecule: COc1ccc(/C=C2/C(C)=NN(c3cccc(Cl)c3)/C2=N/c2nc3ccccc3s2)cc1
Observed Measurement: 25.3 µM (inactive)

We now examine a further molecule.
Test item `CCOC(=O)c1cnc2cc3cccccc3n2c1=O` ; CCRF-CEM; reported GI50 was > 100 µM (inactive)

----------
- Test system: COLO 205
- Measurement Description: NCI tumour cell line growth inhibition, 48 h
The source made the active and inactive calls. No stated cut-off is given here; in the data, active = GI50 up to about 1.1 µM and inactive = higher.
Choose one outcome from this list and give only that: yes (1) for active, no (0) for inactive

Record request — test call for COc1cc(C2S/C(=C/c3ccccc3)C(=O)N2c2ccc(NC(C)=O)cc2)cc(OC)c1OC (stereo not given)
no (0)

Record request — test call for `Cc1nc(-n2nc(-c3ccccc3)cc2-c2ccccc2)sc1C(=O)/C=C/c1ccc([N+](=O)[O-])cc1`
no (0)

Record request — test call for `Cc1c(C(=O)CC(=O)C(=O)Nc2c(C(C)C)cccc2C(C)C)[n+]([O-])c2ccccc2[n+]1[O-]`
no (0)

Record request — test call for `Cc1ccc2oc(=O)cc(CC(=O)O)c2c1`
no (0)

Record request — test call for O=[N+]([O-])C1=Cc2cc(Cl)ccc2OC1c1cccc2ccccc12 (stereo not given)
yes (1)
